// data source = patent US12583825B2

- System Name: recombinant human CLK3 (Homo sapiens, UniProt P49761)
- Sequence (P49761 whole entry): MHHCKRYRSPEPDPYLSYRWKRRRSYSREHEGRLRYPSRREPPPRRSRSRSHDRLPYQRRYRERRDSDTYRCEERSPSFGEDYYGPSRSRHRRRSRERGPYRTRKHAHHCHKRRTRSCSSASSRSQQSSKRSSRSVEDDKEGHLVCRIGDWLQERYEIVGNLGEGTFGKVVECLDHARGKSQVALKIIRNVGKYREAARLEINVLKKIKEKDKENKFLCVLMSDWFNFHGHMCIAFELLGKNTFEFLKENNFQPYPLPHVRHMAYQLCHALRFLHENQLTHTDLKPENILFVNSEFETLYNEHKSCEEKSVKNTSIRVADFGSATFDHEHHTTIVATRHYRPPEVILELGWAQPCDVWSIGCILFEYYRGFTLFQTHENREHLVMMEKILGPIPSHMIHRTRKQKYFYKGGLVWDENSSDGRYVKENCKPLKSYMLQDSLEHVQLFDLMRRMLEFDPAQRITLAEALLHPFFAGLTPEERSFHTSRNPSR
- Assay Method Text: CLK3 kinase assay (LANCE Ultra)
- Assay Context: 0.5 nM CLK3, 300 μM ATP, 3 hours at 30° C.
Reported IC50 is given for each of the following compounds.
The reply should be a number in nM, with the unit left off.

N#CCCO/N=C1\c2cc(O[C@H]3CC[C@H](N)CC3)ccc2-c2ncnc(N)c2C12CCCC2; 2.9
COc1ccc2c(c1)/C(=N\OCCN)C(C)(C)c1c(N)ncnc1-2; 90.4
CC1(C)/C(=N/OCCO)c2cc(O[C@H]3CC[C@H](N)CC3)ccc2-c2ncnc(N)c21; 20.2
COc1ccc2c(c1)/C(=N\OC[C@H]1CNC(=O)C1)C(C)(C)c1c(N)ncnc1-2; 385
C#CCO/N=C1\c2cc(O[C@H]3CC[C@H](N)CC3)ccc2-c2ncnc(N)c2C1(C)C; 27.2

recombinant human CLK3 (Homo sapiens, UniProt P49761) data for CO/N=C1\c2cc(Br)ccc2-c2ncnc(N)c2C1(C)C ; its IC50: 98.6

recombinant human CLK3 (Homo sapiens, UniProt P49761) data for CC1(C)/C(=N\OCCC#N)c2cc(O[C@H]3CC[C@H](N)CC3)ccc2-c2ncnc(N)c21 ; its IC50: 116

recombinant human CLK3 (Homo sapiens, UniProt P49761) data for C=C(c1ccc2c(c1)/C(=N/OC)C(C)(C)c1c(N)ncnc1-2)[C@H]1CC[C@H](N)CC1 ; its IC50: 77.3
